Molecular target: HLA-A*02:16
Experiment: IEDB peptide-MHC binding, purified MHC/competitive/fluorescence; filed as Kd, often an IC50 or EC50 that approximates it; bounds were set here for any values at or beyond the usual limits of such assays
Conditions: source organism: Cryptosporidium parvum Iowa II
pKd: −log10 of the molar value.
Measurement Name: pKd

{"columns": ["Record Sequence", "Endpoint Result"],
 "data": [
  ["RGRKPIFRK", "≤ 4.70"]
]}

* * *

Consider the following sequences and their measured Kd readings.
Target: HLA-A*02:03
Test: IEDB peptide-MHC binding, purified MHC/competitive/fluorescence; filed as Kd, often an IC50 or EC50 that approximates it; bounds were set here for any values at or beyond the usual limits of such assays
Conditions: source organism: Human immunodeficiency virus 1

{"columns": ["Record Sequence", "Unit Label", "Measurement Qualifier", "Kd"],
 "data": [
  ["SLADQLIHL", "nM", "=", 0.86],
  ["KSLYNTIATLY", "nM", "≥", 20000]
]}
